- Tested on: Mus musculus
- Assay explanation: Antiinflammatory activity in ICR mouse assessed as inhibition of xylene-induced ear edema at 0.1 umol/kg, po administered 30 mins prior to xylene challenge measured after 2hrs
- Type: functional
Experimental endpoint: inhibition (INH) (%)
Express the result in % but write the number alone.

Guide cases for inhibition (INH), answers given:
>  <Chemical structure>
CC1(C)N([O])C(c2ccc(OCC(=O)N[C@@H](Cc3ccc(O)cc3)C(=O)N[C@@H](CCC(=O)O)C(=O)O)cc2)=[N+]([O-])C1(C)C

>  <Uom>
%

>  <Observed>
32.22

$$$$
>  <Chemical structure>
CCc1cc(O)ccc1C[C@H](NC(=O)COc1ccc(C2=[N+]([O-])C(C)(C)C(C)(C)N2[O])cc1)C(=O)N[C@@H](CCCNC(=N)N)C(=O)O

>  <Uom>
%

>  <Observed>
30.26

$$$$
>  <Chemical structure>
CC1(C)N([O])C(c2ccc(OCC(=O)N[C@@H](Cc3ccc(O)cc3)C(=O)N[C@@H](CCCNC(=N)N)C(=O)O)cc2)=[N+]([O-])C1(C)C

>  <Uom>
%

>  <Observed>
40.86

$$$$
>  <Chemical structure>
CC1(C)N([O])C(c2ccc(OCC(=O)NCCCNC(=O)[C@H](Cc3ccc(O)cc3)NC(=O)[C@@H](N)CCCNC(=N)N)cc2)=[N+]([O-])C1(C)C

>  <Uom>
%

>  <Observed>
73.47

$$$$
>  <Chemical structure>
COc1cc(O)ccc1C[C@H](NC(=O)COc1ccc(C2=[N+]([O-])C(C)(C)C(C)(C)N2[O])cc1)C(=O)N[C@@H](CCCNC(=N)N)C(=O)O

>  <Uom>
%

>  <Observed>
29.27

$$$$
>  <Chemical structure>
CC1(C)N([O])C(c2ccc(OCC(=O)N[C@@H](Cc3ccc(O)c(CO)c3)C(=O)N[C@@H](CCCNC(=N)N)C(=O)O)cc2)=[N+]([O-])C1(C)C

>  <Uom>
%

>  <Observed>
31.23

$$$$
>  <Chemical structure>
CC1(C)N([O])C(c2ccc(OCC(=O)NCCNC(=O)[C@H](Cc3ccc(O)cc3)NC(=O)[C@@H](N)CCCNC(=N)N)cc2)=[N+]([O-])C1(C)C

>  <Uom>
%

>  <Observed>
50.68

$$$$
>  <Chemical structure>
Cc1cc(C[C@H](NC(=O)COc2ccc(C3=[N+]([O-])C(C)(C)C(C)(C)N3[O])cc2)C(=O)N[C@@H](CCCNC(=N)N)C(=O)O)ccc1O

>  <Uom>
%

>  <Observed>
29.47

$$$$

Suppose we examine the molecule CC1(C)N([O])C(c2ccc(OCC(=O)N[C@@H](Cc3ccc(O)cc3)C(=O)N[C@@H](CCCCN)C(=O)O)cc2)=[N+]([O-])C1(C)C ; what inhibition (INH) value has been reported?
36.94

Which inhibition (INH) value belongs to CC1(C)N([O])C(c2ccc(OCC(=O)N[C@@H](CCCNC(=N)N)C(=O)N[C@@H](Cc3ccc(O)cc3)C(=O)O)cc2)=[N+]([O-])C1(C)C ?
28.29

Provenance of the data: ChEMBL document CHEMBL3784981
